biological target: human EP2 receptor (Homo sapiens, UniProt P43116); construct: expressed in transfected cells; experiment: Binding ability to human EP receptors ([3H]PGE2 displacement), EP2; conditions: membranes expressing human EP2; [3H]PGE2 3 nM; Cheng-Prusoff; read-out: pKi (M) EP2 (converted)
Sequence (P43116 whole entry): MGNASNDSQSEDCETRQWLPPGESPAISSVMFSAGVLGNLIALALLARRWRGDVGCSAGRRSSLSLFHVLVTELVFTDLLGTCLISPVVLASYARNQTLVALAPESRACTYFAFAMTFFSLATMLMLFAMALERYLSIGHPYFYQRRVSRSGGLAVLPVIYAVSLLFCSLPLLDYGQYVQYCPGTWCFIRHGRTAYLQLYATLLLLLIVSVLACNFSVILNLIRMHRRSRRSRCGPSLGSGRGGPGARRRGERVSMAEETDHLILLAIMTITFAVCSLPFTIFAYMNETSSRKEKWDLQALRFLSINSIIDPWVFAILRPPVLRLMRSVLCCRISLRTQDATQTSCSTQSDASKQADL
READOUT_NAME: Ki

Past entries and their recorded results:
SMI	Ki
Cc1cccc(-c2ccc(C(=O)Nc3cccc(CC(=O)O)c3)o2)c1	< 1e-06 M
O=C(O)/C=C/c1cccc(NC(=O)c2cccc(-c3cccc(F)c3)n2)c1	< 1e-07 M
CC(=O)c1cccc(-c2ccc(C(=O)Nc3cccc(CC(=O)O)c3)o2)c1	< 1e-06 M
O=C(O)Cc1cccc(NC(=O)c2ccc(-c3ccccc3Cl)o2)c1	< 1e-05 M

// below: Ki requested for another compound
// field: Ki; key: Cc1ccc(-c2ccc(C(=O)Nc3cccc(CC(=O)O)c3)o2)cc1 ; value = < 1e-05 M

Source: patent US7326732B2
